Tested on: c-Abl (mouse);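 further: 11-residue human phosphosite peptides and single-mutation variants displayed on the E. coli surface, counted by deep sequencing, each peptide's frequency after selection divided by its frequency in the unselected input library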;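 further: frequency after pTyr selection over input frequency; kinase dosed for 20-30% of maximal phosphorylation in three min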
Test: phosphorylation enrichment, bacterial display (enrichment ratio); higher = better substrate or ligand; peptides without Tyr show the background
readout-label: phosphorylation enrichment

What value of phosphorylation enrichment has been recorded for this entry: SVTCAYSPALN [TP53_Y126_T125A]
0.79

What value of phosphorylation enrichment has been recorded for this entry: MFCAGYDTKQE [F10_Y407]
0.793

What value of phosphorylation enrichment has been recorded for this entry: ALDHKYHGGGG [HBB_Y146_A143D]
0.425

What value of phosphorylation enrichment has been recorded for this entry: LEDEVYAQKMK [TPM2_Y261]
1.49

What value of phosphorylation enrichment has been recorded for this entry: EKESCYILHSS [PATJ_Y783_E779K]
0.707

What value of phosphorylation enrichment has been recorded for this entry: MKGDYYCYLAE [YWHAG_Y131_R132C]
1.85

What value of phosphorylation enrichment has been recorded for this entry: YCRHNYGAVES [HLA-DRB1_Y112_V114A]
0.696

What value of phosphorylation enrichment has been recorded for this entry: CDKEFYSVHNK [MET_Y1235_Y1230C_YF]
0.55

Values from the supplement of paper PMC10065799
